Reported GI50 is given for each of the following compounds.
Tested on: 786-0 renal
Assay: NCI tumour cell line growth inhibition, 48 h

// solved cases for GI50 follow
COc1ncnc(S(=O)(=O)c2ccc(N=C3C(=O)N(CN4CCN(c5cc6c(cc5F)c(=O)c(C(=O)O)cn6C5CC5)CC4)c4ccc(Cl)cc43)cc2)c1OC; 33.7 µM
Cc1nc2ccc(NC(=O)CCNC(=O)CCCc3ccc(CC(C(=O)O)C(=O)O)cc3)cc2s1; > 100 µM

Which value of GI50 has been reported for Cc1c(-c2ccnc(N)n2)c2c(n1Cc1ccccc1)C(=O)c1ccccc1C2=O in the records? 5.02 µM

----------
Test system: HOP-92 NSCLC
Experiment: NCI tumour cell line growth inhibition, 48 h
metric: TGI

// solved cases for TGI follow
C=CCC1=C(C)C[C@@H]2CCC(=O)C=C12; > 100 µM
O=C1CC(c2[nH]nc3ccccc23)C(=O)N1c1ccccc1 (configuration not stated); > 100 µM
COc1cc(NC(=O)CCSc2nc3ccc(C)cc3c(=O)n2Cc2ccccc2)cc(OC)c1OC; 7.99 µM
O=c1[nH]n(Cc2ccccc2)c2ccc([N+](=O)[O-])cc12; > 100 µM
O=C1NC(=O)C(C(CC(=O)c2ccc(Cl)cc2)c2ccc(Cl)cc2)C(=O)N1 (configuration not stated); > 100 µM

Which value of TGI has been reported for O=c1[nH]c2nc(NC3CCOCC3)ncc2cc1Oc1ccc(F)cc1F in the records? > 25 µM

Which value of TGI has been reported for COC(=O)COc1ccc(/C=C2/N=C(c3ccccc3)N(c3c(C)n(C)n(-c4ccccc4)c3=O)C2=O)cc1 in the records? 55.1 µM

Which value of TGI has been reported for Cc1ccc(S(=O)(=O)Nc2nnc(S(N)(=O)=O)s2)cc1 in the records? > 100 µM

Which value of TGI has been reported for Cc1c(-c2ccnc(N)n2)c2c(n1Cc1ccccc1)C(=O)c1ccccc1C2=O in the records? > 100 µM

Which value of TGI has been reported for CC(C)(C)n1c(=O)[nH]c(=O)n1C(C)(C)C in the records? > 100 µM

----------
Reported GI50 is given for each of the following compounds.
Test system: MOLT-4 leukemia
Assay: NCI tumour cell line growth inhibition, 48 h

Which value of GI50 has been reported for c1ccc(-c2nc(N3CCOCC3)c3c4c(sc3n2)CCCCCC4)nc1 in the records? 3.77 µM

----------
System: CCRF-CEM leukemia
Assay: NCI tumour cell line growth inhibition, 48 h
metric: TGI (µM)
Response body: numeric value in µM, unit text excluded.

COc1cccc(N[C@@H]2c3cc4c(cc3C(c3cc(OC)c(O)c(OC)c3)[C@H]3C(=O)OCC32)OCO4)c1 (stereo not given in full); 2.69

Continue with the compound presented below.
Which value of TGI has been reported for COc1cc(C)c(C2NC(=O)c3ccccc3N2)cc1C (stereo not given) in the records? 18.1

----------
Reported TGI is given for each of the following compounds.
System: LOX IMVI melanoma
Test: NCI tumour cell line growth inhibition, 48 h

Which value of TGI has been reported for C/C(=N\Nc1nc2cc(C(F)(F)F)ccc2s1)c1ccccn1 in the records? 2.48 µM

Which value of TGI has been reported for CCOc1c(N=Nc2ccccc2Cl)c(-c2ccccc2)nn1C(=S)S in the records? 46.1 µM

Which value of TGI has been reported for N#Cc1cc2c(n(C3OC(CO)C(O)C(O)C3O)c1=S)CCCCCC2 (stereo unspecified) in the records? > 100 µM

Which value of TGI has been reported for COC(=O)c1c2c(cc3c1CC1(Cc4cc5c(c(C(C)=O)c4C1)CCC5)C3)CCC2 (stereo unspecified) in the records? > 100 µM

Which value of TGI has been reported for CC(C)(C)OC(=O)NCC(CNC(=O)OC(C)(C)C)c1nc(C(N)=O)cs1 in the records? > 100 µM

Which value of TGI has been reported for C#Cc1c(C)c(/C=C/C(C)=C/C(=O)OC)n(C)c1C in the records? > 100 µM

Which value of TGI has been reported for COc1ccc(CCc2cc(OC)cc(OC)c2)cc1 in the records? > 100 µM

Which value of TGI has been reported for O=C1/C(=C/c2ccccc2)CN(C(=O)CCN2CCCC2)C/C1=C\c1ccccc1 in the records? 1.85 µM

Which value of TGI has been reported for CC1(C)CC2(CC(C)(C)N1O)NC(=O)OC2=O in the records? > 100 µM

----------
System: MDA-MB-231 breast
Experiment: NCI tumour cell line growth inhibition, 48 h
metric: TGI

// solved cases for TGI follow
Nc1nc(Cl)cc(NC23CC4CC(CC(C4)C2)C3)n1; > 100 µM
COc1cnc2c(c1)C(=O)c1c-2n(CCCNCCO)c(=O)c2ccncc12; 10.9 µM
CCOC(=O)c1cc2c([N+](=O)[O-])c(N)ccc2s1; > 100 µM

Which value of TGI has been reported for CN(C)CCn1c(CO)nc2c1c(=O)n(C)c(=O)n2C in the records? > 100 µM

Which value of TGI has been reported for CCOC(=O)Nn1c(CC#N)nnc1Cc1ccccc1 in the records? > 100 µM

Which value of TGI has been reported for c1ccc(-c2nc(N3CCOCC3)c3c4c(sc3n2)CCCCCC4)nc1 in the records? 25.9 µM

Which value of TGI has been reported for CCOP(=O)(O)CN1CCNCCN(CP(=O)(O)OCC)CCNCC1 in the records? > 100 µM

Which value of TGI has been reported for COc1cc(C2c3cc4c(cc3C3OC[C@@H]2C3CO)OCO4)cc(OC)c1OC (stereo not given in full) in the records? > 100 µM

----------
Tested on: HOP-62 NSCLC
Assay: NCI tumour cell line growth inhibition, 48 h
Reported TGI is given for each of the following compounds.

// solved cases for TGI follow
COc1ccc(Nc2ccc3ccccc3c2-c2c(O)ccc3ccccc23)cc1; 25.1 µM
Cc1c(C(=O)OCc2ccccc2)[n+](=O)c2cc(Cl)c(Cl)cc2n1[O-]; 30.5 µM
CC(C)(C)[Si](C)(C)OCc1cccc(OCCOc2cccc(CO[Si](C)(C)C(C)(C)C)c2[N+](=O)[O-])c1[N+](=O)[O-]; > 100 µM

Provide value of TGI for this record tested with HOP-62 NSCLC: C=CC[n+]1c2ccccc2n2cc([N+](=O)[O-])ccc21 > 100 µM

Provide value of TGI for this record tested with HOP-62 NSCLC: O=P1(S)OC[C@H]2O[C@@H]3[C@H](F)[C@@H]2OP(O)(=S)OC[C@H]2O[C@H]([C@H](F)[C@@H]2O1)n1cnc2c(ncnc21)NC/C=C/CNc1ncnc2c1ncn23 (stereo not given in full) > 100 µM

Provide value of TGI for this record tested with HOP-62 NSCLC: Cc1cc(OC(=O)NCn2cc(-c3ccccc3)nn2)ccc1Cl > 100 µM

Provide value of TGI for this record tested with HOP-62 NSCLC: O=S(=O)(NCn1ccc2ccccc21)c1ccccc1 > 100 µM

Provide value of TGI for this record tested with HOP-62 NSCLC: CCN=C1C=CC(=C(c2ccc(N(CC)CC)cc2)c2ccc(N(CC)CC)cc2)c2ccccc21 0.846 µM

Provide value of TGI for this record tested with HOP-62 NSCLC: O=C1/C(=C/c2ccccc2)CN(C(=O)CCN2CCCC2)C/C1=C\c1ccccc1 16 µM

Provide value of TGI for this record tested with HOP-62 NSCLC: O=C1CC(c2[nH]nc3ccccc23)C(=O)N1c1ccccc1 (stereo not given) > 100 µM

Provide value of TGI for this record tested with HOP-62 NSCLC: CN(C)CCn1c(CO)nc2c1c(=O)n(C)c(=O)n2C > 100 µM

Provide value of TGI for this record tested with HOP-62 NSCLC: O=c1c(-c2ccccc2)c(SCCO)n(-c2ccccc2)c(=S)n1-c1ccccc1 > 100 µM

Provide value of TGI for this record tested with HOP-62 NSCLC: CN(C)c1nc2ccccc2c2c1c1c(n2Cc2ccccc2)-c2ccccc2C1=O > 100 µM

Provide value of TGI for this record tested with HOP-62 NSCLC: CC(=O)Nc1ccc(OC/C(N)=N/NC(=O)c2ccncc2)cc1 > 100 µM

Provide value of TGI for this record tested with HOP-62 NSCLC: CN1CC2=C(NC(=S)NC2c2ccccc2)/C(=C/c2ccccc2)C1 (stereo not given) > 100 µM

----------
Reported GI50 is given for each of the following compounds.
Tested on: MDA-MB-231 breast
Assay: NCI tumour cell line growth inhibition, 48 h

c1ccc(-c2nc(N3CCOCC3)c3c4c(sc3n2)CCCCCC4)nc1; 7430 nM
c1ccc2c(-c3nc(-c4c[nH]c5ccncc45)cs3)c[nH]c2c1; 1060 nM
CCCCCC[C@H](C)Nc1nc2ccccc2c2occc12; 10600 nM
COc1ccc2[nH]c(O)c(/C=c3/cc4c(c(-c5ccc(F)c(OC)c5)n3)=Nc3ccccc3-4)c2c1; 1470 nM

Continue with the compound presented below.
Which value of GI50 has been reported for Cc1c(-c2ccnc(N)n2)c2c(n1Cc1ccccc1)C(=O)c1ccccc1C2=O in the records? 1730 nM
